Listed here: items and their measured IC50.
measured on: Recombinant human cathepsin A (Homo sapiens)
Construct: Recombinant human cathepsin A (residues 29-480, with a C-terminal 10-His tag); 10-His (C); purchased R&D Systems 1049-SE
experiment notes: Cathepsin A inhibitory activity
Assay type: biochemical
recorded conditions: read-out: Activity (2): Cathepsin A inhibitory activity, IC50 class
From the text: a) Cathepsin A Inhibitory Activity Recombinant human cathepsin A (residues 29-480, with a C-terminal 10-His tag; R&D Systems, #1049-SE) was proteolytically activated with recombinant human cathepsin L (R&D Systems, #952-CY). […] Uncleaved substrate and product were then separated by a microfluidic capillary electrophoresis on a LabChip® 3000 Drug Discovery System (12-Sipper-Chip; Caliper Life Sciences) and quantified by determination of the respective peak areas. […]

CC(C)(C)C(=O)COc1cc(C(=O)N[C@@H](CC(=O)O)c2cccc(Cl)c2)nn1-c1ccccc1F: < 100 nM
COc1ccccc1[C@H](CC(=O)O)NC(=O)c1cc(OC[C@](C)(O)C(C)C)n(-c2ccccc2F)n1: < 100 nM
O=C(O)C[C@H](NC(=O)c1cc(O)n(-c2ccc(Cl)cc2)n1)c1cccc(Cl)c1Cl: 100 to 1000 nM

Would you kindly share the measured IC50 for COc1cccc([C@H](CC(=O)O)NC(=O)c2cc(O)n(-c3ccc(F)cc3)n2)c1OC ?
100 to 1000 nM

What measured IC50 goes with O=C(O)C[C@H](NC(=O)c1cc(O)n(-c2ccc(F)cc2)n1)c1cccc(Cl)c1Cl ?
100 to 1000 nM

Record request: IC50 value, item CC(C)CC(CC(=O)O)NC(=O)c1cc(OC[C@](C)(O)C(C)C)n(-c2ccccc2F)n1 (stereo partly drawn)
100 to 1000 nM

Entry under review: Cc1ccc(C)c(-n2nc(C(=O)NC(CC(=O)O)c3cccc(Cl)c3)cc2O)c1 (stereo not drawn) . Reported IC50?
1000 to 30000 nM

State the recorded IC50 for this entry: COc1ccc([C@H](CC(=O)O)NC(=O)c2cc(O)n(-c3ccc(F)cc3F)n2)cn1
100 to 1000 nM

Recorded IC50 for COc1cccc([C@H](CC(=O)O)NC(=O)c2cc(OCC(C)(O)C(C)C)n(-c3ccccc3F)n2)c1 (stereo partly drawn) , please?
< 100 nM

Which measured IC50 value corresponds to Cc1ccc(C)c(-n2nc(C(=O)NC(CC(=O)O)c3ccc(F)cc3)cc2O)c1 (stereo not drawn) ?
1000 to 30000 nM

Item under review: COc1ccc([C@H](CC(=O)O)NC(=O)c2cc(OC[C@](C)(O)C(C)C)n(-c3ccccc3F)n2)cc1 . Reported IC50?
< 100 nM

Need IC50, item O=C(O)CC(NC(=O)c1cc(O)n(-c2ccc(F)cc2)n1)c1cccc2c1OCO2 (stereo not drawn)
100 to 1000 nM

I'd like to know its IC50. The compound in question is Cc1ccc(C(CC(=O)O)NC(=O)c2cc(O)n(-c3cccc(F)c3)n2)c(C)c1 (stereo not drawn)
100 to 1000 nM

----------
measured on: Recombinant human cathepsin A (Homo sapiens, UniProt P10619)
Construct: Recombinant human cathepsin A (residues 29-480, with a C-terminal 10-His tag); 10-His (C); purchased R&D Systems 1049-SE
experiment notes: Cathepsin A inhibitory activity
Type: biochemical
recorded conditions: recombinant human cathepsin A 833 ng/ml, Bodipy FL-labeled bradykinin 2 μM, pH 5.5; read-out: CATH-A IC50
quantity: pIC50
By convention, pIC50 is the negative base-10 log of a molar concentration.

O=C(O)CC(NC(=O)c1cc(O)n(-c2cccc(Cl)c2)n1)c1cc(Cl)ccc1Cl (stereo not drawn): 6.99
CN(C)c1ccc(C(CC(=O)O)NC(=O)c2cc(O)n(-c3ccc(F)cc3F)n2)c(Cl)c1 (stereo not drawn): 6.05
O=C(O)C[C@H](NC(=O)c1cc(O)n(-c2ccccc2Cl)n1)c1ccccc1Cl: 6.79
O=C(O)CC(NC(=O)c1cc(O)n(-c2ccccc2Cl)n1)c1cc(Cl)ccc1Cl (stereo not drawn): 7.09
COc1ccc(F)cc1C(CC(=O)O)NC(=O)c1cc(O)n(-c2ccccc2)n1 (stereo not drawn): 6.85

Turning now to a further compound:
Provide value of pIC50 for this record tested with Recombinant human cathepsin A (Homo sapiens, UniProt P10619): COc1ccc(C(CC(=O)O)NC(=O)c2cc(O)n(-c3ccccc3Cl)n2)c(C(F)(F)F)c1 (stereo not drawn)
5.97

----------
measured on: Recombinant human cathepsin A (Homo sapiens, UniProt P10619)
Construct: Recombinant human cathepsin A (residues 29-480, with a C-terminal 10-His tag); 10-His (C); purchased R&D Systems 1049-SE
experiment notes: Cathepsin A inhibitory activity
Type: biochemical
recorded conditions: read-out: Activity (2): Cathepsin A inhibitory activity (IC50 class)
quantity: IC50

// solved cases for IC50 follow
CCOc1cc(C(=O)NC(CC(=O)O)c2ccc(C)cc2C)nn1-c1ccccc1F (stereo not drawn): < 100 nM
COc1cc(-c2ccccc2)ccc1C(CC(=O)O)NC(=O)c1cc(O)n(-c2ccccc2F)n1 (stereo not drawn): 100 to 1000 nM
COc1c(C)c(C(=O)NC(CC(=O)O)c2ccccc2C)nn1-c1ccccc1F (stereo not drawn): 1000 to 30000 nM
Cc1ccccc1[C@H](CC(=O)O)NC(=O)c1cc(OCc2ccccc2)n(-c2ccccc2F)n1: < 100 nM
COc1cc(C(=O)NC(CC(=O)O)c2cccc(F)c2C)nn1-c1ccccc1F (stereo not drawn): < 100 nM

Continue with the compound presented below.
So what IC50 did COc1ccc(C(CC(=O)O)NC(=O)c2cc(O)n(-c3ccccc3)n2)c(C(F)(F)F)c1 (stereo not drawn) get with Recombinant human cathepsin A (Homo sapiens, UniProt P10619)?
100 to 1000 nM

----------
pIC50 values, listed per item
measured on: Recombinant human cathepsin A (Homo sapiens)
Construct: Recombinant human cathepsin A (residues 29-480, with a C-terminal 10-His tag); 10-His (C); purchased R&D Systems 1049-SE
Sequence (P10619 29-312 limits assumed): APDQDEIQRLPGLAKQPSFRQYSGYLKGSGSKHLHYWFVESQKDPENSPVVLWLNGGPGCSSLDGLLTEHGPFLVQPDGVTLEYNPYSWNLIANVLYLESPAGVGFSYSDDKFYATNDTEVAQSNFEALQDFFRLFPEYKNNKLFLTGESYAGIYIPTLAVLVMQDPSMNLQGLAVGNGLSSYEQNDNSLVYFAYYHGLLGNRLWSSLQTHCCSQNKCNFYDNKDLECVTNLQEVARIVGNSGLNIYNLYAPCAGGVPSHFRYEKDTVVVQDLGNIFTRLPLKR
Sequence (P10619 327-480 limits assumed): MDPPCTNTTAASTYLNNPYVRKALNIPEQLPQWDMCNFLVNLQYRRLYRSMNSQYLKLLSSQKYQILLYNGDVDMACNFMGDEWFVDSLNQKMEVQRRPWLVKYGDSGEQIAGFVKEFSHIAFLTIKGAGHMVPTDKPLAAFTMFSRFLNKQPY
experiment notes: Cathepsin A inhibitory activity
Type: biochemical
recorded conditions: pharmacological test "Cathepsin A inhibitory activity"; IC50 given as class A/B/C; read-out: Activity (2): Cathepsin A inhibitory activity, IC50 class
pIC50: −log10 of the molar value.

O=C(O)C[C@H](NC(=O)c1cc(O)n(-c2cccc(Cl)c2)n1)c1ccccc1Br: 6.00 to 7.00
O=C(O)CC(NC(=O)c1cc(O)n(-c2ccc(F)cc2F)n1)c1ccc(-c2ccccc2)cc1 (stereo not drawn): 6.00 to 7.00

Give the measured pIC50 of O=C(O)CC(NC(=O)c1cc(O)n(-c2ccccc2Cl)n1)c1cccc(C(F)(F)F)c1Cl (stereo not drawn) .
6.00 to 7.00

Given O=C(O)C[C@H](NC(=O)c1cc(O)n(-c2cccc(Cl)c2)n1)c1cccnc1 , state its recorded pIC50.
4.52 to 6.00

Which pIC50 reading was recorded for the compound O=C(O)C[C@H](NC(=O)c1cc(O)n(-c2cccc(Cl)c2)n1)c1cccc(C(F)(F)F)c1 ?
4.52 to 6.00

Quick check: pIC50 of O=C(O)C[C@H](NC(=O)c1cc(O)n(-c2ccccc2Cl)n1)c1cccnc1 ?
6.00 to 7.00

----------
measured on: Recombinant human cathepsin A (Homo sapiens, UniProt P10619)
Construct: Recombinant human cathepsin A (residues 29-480, with a C-terminal 10-His tag); 10-His (C); purchased R&D Systems 1049-SE
experiment notes: Cathepsin A inhibitory activity
Assay type: biochemical
recorded conditions: recombinant human cathepsin A 833 ng/ml, Bodipy FL-labeled bradykinin 2 μM, pH 5.5; read-out: CATH-A IC50
pIC50: −log10 of the molar value.
pIC50 of 7 or higher: Met. Under 7: Not met.

See these solved cases before continuing.
CC(C)(C)[C@@H](O)COc1cc(C(=O)N[C@@H](CC(=O)O)c2ccc(Cl)cc2Cl)nn1-c1ccccc1F: Not met
O=C(O)CC(NC(=O)c1cc(O)n(-c2ccccc2)n1)c1cccc2c1OC(F)(F)O2 (stereo not drawn): Not met
COc1ccc(C(F)(F)F)cc1C(CC(=O)O)NC(=O)c1cc(O)n(-c2ccccc2F)n1 (stereo not drawn): Not met

Hi team, for O=C(O)CC(NC(=O)c1cc(O)n(-c2ccccc2Cl)n1)c1cccc2c1OC(F)(F)O2 (stereo not drawn) , is the recorded pIC50 at or above 7?
Not met
